Data provenance: DBAASP

Each entry below carries its recorded MIC.
System: Escherichia coli ATCC 11775
Test: ≥ marks a high value that may be exact or a test limit, other limits are often not marked, values filed in µg/mL are converted to µM

smilesStr | targetOrTestSystem | MIC
CC[C@H](C)[C@H](N)C(=O)N[C@@H](CC(C)C)C(=O)N1CCC[C@H]1C(=O)N[C@H](C(=O)N[C@@H](CC(C)C)C(=O)N[C@@H](CO)C(=O)N[C@@H](CC(C)C)C(=O)N[C@H](C(=O)NCC(=O)NCC(=O)N[C@@H](CC(C)C)C(=O)N[C@@H](CC(C)C)C(N)=O)[C@@H](C)CC)[C@@H](C)CC | Escherichia coli ATCC 11775 | ≥ 100 µM
CC[C@H](C)[C@H](N)C(=O)N[C@@H](CC(N)=O)C(=O)N[C@@H](Cc1c[nH]c2ccccc12)C(=O)N[C@@H](CCCCN)C(=O)N[C@@H](CCCCN)C(=O)N[C@H](C(=O)N[C@@H](CCCCN)C(=O)N[C@@H](CCCCN)C(=O)N[C@@H](CCCCN)C(=O)N[C@H](C(=O)N[C@@H](CCCCN)C(=O)NCC(=O)N[C@@H](CCSC)C(=O)N[C@@H](CC(C)C)C(N)=O)C(C)C)[C@@H](C)CC | Escherichia coli ATCC 11775 | 9.33 µM
CC[C@H](C)[C@H](N)C(=O)N[C@@H](CC(N)=O)C(=O)N[C@@H](Cc1c[nH]c2ccccc12)C(=O)N[C@@H](CC(C)C)C(=O)N[C@@H](CCCCN)C(=O)N[C@H](C(=O)N[C@@H](C)C(=O)N[C@@H](C)C(=O)N[C@@H](C)C(=O)N[C@H](C(=O)N[C@@H](C)C(=O)NCC(=O)N[C@@H](CCSC)C(=O)N[C@@H](CC(C)C)C(N)=O)C(C)C)[C@@H](C)CC | Escherichia coli ATCC 11775 | ≥ 340 µM

---

Measured MIC on Staphylococcus aureus ATCC 29213 follows.

smilesStr | MIC [µM]
NC(=O)[C@H](Cc1ccccc1)NC(=O)[C@H](Cc1ccccc1)NC(=O)[C@H](Cc1ccccc1)NC(=O)[C@H](Cc1ccccc1)NC(=O)[C@@H]1CCCN1C(=O)[C@H](CCCN=C(N)N)NC(=O)[C@@H]1CCCN1C(=O)[C@H](CCCN=C(N)N)NC(=O)[C@@H]1CCCN1C(=O)[C@H](CCCN=C(N)N)NC(=O)[C@@H]1CCCN1C(=O)[C@H](CCCN=C(N)N)NC(=O)[C@@H](N)CCCN=C(N)N | 20
CC[C@H](C)[C@H](NC(=O)[C@H](Cc1c[nH]c2ccccc12)NC(=O)[C@H](CCCCN)NC(=O)[C@H](CC(C)C)NC(=O)[C@@H](NC(=O)[C@H](CCCCN)NC(=O)CNC(=O)[C@@H](NC(=O)[C@H](CCCCN)NC(=O)[C@H](CCCCN)NC(=O)[C@H](CC(C)C)NC(=O)[C@H](CCCN=C(N)N)NC(=O)[C@H](CCCCN)NC(=O)[C@H](CCCN=C(N)N)NC(=O)[C@@H](N)[C@@H](C)O)[C@@H](C)CC)C(C)C)C(N)=O | 32
CC(=O)N[C@@H](CCCCN)C(=O)N[C@@H](CC(C)C)C(=O)N[C@@H](CC(C)C)C(=O)N[C@@H](CCCCN)C(=O)N[C@@H](CC(C)C)C(=O)N[C@@H](CC(C)C)C(=O)N[C@@H](CCCCN)C(=O)N[C@@H](CCCCN)C(=O)N[C@@H](CC(C)C)C(=O)N[C@@H](CC(C)C)C(=O)N[C@@H](CCCCN)C(=O)N[C@@H](CC(C)C)C(=O)N1CCC[C@H]1C(=O)N[C@@H](CCCCN)C(N)=O | 10
CC(C)C[C@H](NC(=O)[C@H](CCCCN)NC(=O)[C@H](Cc1c[nH]c2ccccc12)NC(=O)[C@H](CCCCN)NC(=O)[C@H](CC(C)C)NC(=O)[C@H](CCCCN)NC(=O)[C@H](Cc1c[nH]c2ccccc12)NC(=O)[C@H](CCCCN)NC(=O)[C@H](CC(C)C)NC(=O)[C@H](CCCCN)NC(=O)[C@@H](N)Cc1c[nH]c2ccccc12)C(=O)N[C@@H](CCCCN)C(N)=O | 2
NC(=O)[C@H](Cc1c[nH]c2ccccc12)NC(=O)[C@H](CCCN=C(N)N)NC(=O)[C@H](Cc1c[nH]c2ccccc12)NC(=O)[C@H](Cc1c[nH]c2ccccc12)NC(=O)[C@H](Cc1c[nH]c2ccccc12)NC(=O)[C@H](CCCN=C(N)N)NC(=O)[C@@H](N)Cc1c[nH]c2ccccc12 | 8

---

System: Pseudomonas aeruginosa ATCC 9027
Assay: ≥ marks a high value that may be exact or a test limit, other limits are often not marked, values filed in µg/mL are converted to µM

compound | MIC
CSCC[C@H](NC(=O)[C@H](Cc1cnc[nH]1)NC(=O)[C@H](CCCCN)NC(=O)[C@H](CC(C)C)NC(=O)[C@H](CCCCN)NC(=O)[C@@H](N)CCCN=C(N)N)C(=O)N[C@@H](CCCN=C(N)N)C(=O)N[C@@H](Cc1ccccc1)C(=O)O | > 100 µM
NCCCCC(N)C(=O)NC(Cc1ccc(O)cc1)C(=O)NC(CCCN=C(N)N)C(=O)O (stereo not drawn) | > 100 µM
CC[C@H](C)[C@H](NC(=O)[C@H](CCCCN)NC(=O)[C@H](CCCCN)NC(=O)[C@H](C)NC(=O)[C@@H](NC(=O)[C@H](C)NC(=O)[C@H](C)NC(=O)[C@H](CC(C)C)NC(=O)[C@H](C)NC(=O)[C@H](CCCCN)NC(=O)[C@H](CC(C)C)NC(=O)[C@H](CC(N)=O)NC(=O)CN)C(C)C)C(=O)N[C@@H](CC(C)C)C(N)=O | 64 µM

---

MIC for assorted compounds
Tested on: Trichosporon beigelii KCTC 7707
readout: MIC (µM)

smilesStr | unitSymbol | inequalitySymbol | endpointValue
CC[C@H](C)[C@H](NC(=O)[C@@H](NC(=O)[C@H](Cc1c[nH]c2ccccc12)NC(=O)[C@@H](NC(=O)[C@@H](N)CCCN=C(N)N)[C@@H](C)CC)C(C)C)C(=O)N[C@@H](Cc1c[nH]c2ccccc12)C(=O)N[C@@H](CCCN=C(N)N)C(=O)N[C@@H](CCCN=C(N)N)C(N)=O | µM | = | 12.5
CC[C@H](C)[C@H](NC(=O)CNC(=O)[C@H](CC(C)C)NC(=O)[C@H](CCCN=C(N)N)NC(=O)[C@H](CCCCN)NC(=O)[C@H](Cc1ccccc1)NC(=O)[C@@H](NC(=O)[C@H](CCCCN)NC(=O)[C@H](CCCCN)NC(=O)[C@H](C)N)C(C)C)C(=O)NCC(=O)N[C@@H](C)C(=O)N[C@H](C(=O)N[C@@H](CC(C)C)C(=O)N[C@@H](Cc1c[nH]c2ccccc12)C(=O)N[C@H](C(=O)N[C@@H](CC(C)C)C(=O)N[C@H](C(=O)N[C@@H](Cc1c[nH]c2ccccc12)C(=O)NCC(=O)O)[C@@H](C)O)C(C)C)C(C)C | µM | ≥ | 50
CC[C@H](C)[C@H](NC(=O)[C@H](CCCCN)NC(=O)[C@H](CCCCN)NC(=O)[C@H](C)NC(=O)[C@H](CC(C)C)NC(=O)[C@H](CCCCN)NC(=O)[C@H](CCCCN)NC(=O)[C@H](CC(C)C)NC(=O)[C@H](CCCN=C(N)N)NC(=O)[C@H](CCCCN)NC(=O)[C@H](C)N)C(=O)N[C@@H](Cc1c[nH]c2ccccc12)C(=O)N[C@@H](CC(N)=O)C(=O)N[C@@H](Cc1c[nH]c2ccccc12)C(=O)N[C@@H](CCCCN)C(N)=O | µM | ≥ | 32
CC[C@H](C)[C@H](NC(=O)[C@H](CCCN=C(N)N)NC(=O)CNC(=O)[C@@H](NC(=O)[C@@H]1CCCN1C(=O)[C@H](Cc1ccccc1)NC(=O)[C@H](CCC(N)=O)NC(=O)[C@H](CC(C)C)NC(=O)CNC(=O)[C@H](C)N)C(C)C)C(=O)NCC(=O)N[C@@H](CCCN=C(N)N)C(=O)N[C@@H](CC(C)C)C(=O)N[C@@H](CC(C)C)C(=O)N[C@@H](CCCN=C(N)N)C(=O)N[C@@H](CCCCN)C(=O)O | µM | = | 6.3
CC[C@H](C)[C@H](NC(=O)CNC(=O)[C@H](CC(C)C)NC(=O)[C@H](CCCN=C(N)N)NC(=O)[C@H](CCCCN)NC(=O)[C@H](Cc1ccccc1)NC(=O)[C@@H](NC(=O)[C@H](CCCCN)NC(=O)[C@H](CCCCN)NC(=O)[C@H](C)N)C(C)C)C(=O)NCC(=O)N[C@@H](C)C(=O)N[C@H](C(=O)N[C@@H](CC(C)C)C(=O)N[C@@H](CCCCN)C(=O)N[C@H](C(=O)N[C@@H](CC(C)C)C(=O)N[C@H](C(=O)N[C@H](C(=O)NCC(=O)O)[C@@H](C)O)[C@@H](C)O)C(C)C)C(C)C | µM | = | 17.7
CC[C@H](C)[C@H](NC(=O)[C@H](CCCCN)NC(=O)[C@H](CCCCN)NC(=O)[C@H](Cc1ccccc1)NC(=O)[C@H](CC(C)C)NC(=O)[C@H](CCCCN)NC(=O)[C@H](CCCCN)NC(=O)[C@H](CC(C)C)NC(=O)[C@H](CCCN=C(N)N)NC(=O)[C@H](CCCCN)NC(=O)[C@@H](N)Cc1ccccc1)C(=O)N[C@@H](Cc1c[nH]c2ccccc12)C(=O)N[C@@H](CC(N)=O)C(=O)N[C@@H](Cc1c[nH]c2ccccc12)C(=O)N[C@@H](CCCCN)C(N)=O | µM | = | 16
